- tested.target: T1, Biotin-hBA2 (human, biotinylated (sites not given))
- T1 construct: hBA2 consists of two dimers; also called biotinylated hBA2; human bow-Ang2
- T1 sequence (chain, as listed by the source limits assumed): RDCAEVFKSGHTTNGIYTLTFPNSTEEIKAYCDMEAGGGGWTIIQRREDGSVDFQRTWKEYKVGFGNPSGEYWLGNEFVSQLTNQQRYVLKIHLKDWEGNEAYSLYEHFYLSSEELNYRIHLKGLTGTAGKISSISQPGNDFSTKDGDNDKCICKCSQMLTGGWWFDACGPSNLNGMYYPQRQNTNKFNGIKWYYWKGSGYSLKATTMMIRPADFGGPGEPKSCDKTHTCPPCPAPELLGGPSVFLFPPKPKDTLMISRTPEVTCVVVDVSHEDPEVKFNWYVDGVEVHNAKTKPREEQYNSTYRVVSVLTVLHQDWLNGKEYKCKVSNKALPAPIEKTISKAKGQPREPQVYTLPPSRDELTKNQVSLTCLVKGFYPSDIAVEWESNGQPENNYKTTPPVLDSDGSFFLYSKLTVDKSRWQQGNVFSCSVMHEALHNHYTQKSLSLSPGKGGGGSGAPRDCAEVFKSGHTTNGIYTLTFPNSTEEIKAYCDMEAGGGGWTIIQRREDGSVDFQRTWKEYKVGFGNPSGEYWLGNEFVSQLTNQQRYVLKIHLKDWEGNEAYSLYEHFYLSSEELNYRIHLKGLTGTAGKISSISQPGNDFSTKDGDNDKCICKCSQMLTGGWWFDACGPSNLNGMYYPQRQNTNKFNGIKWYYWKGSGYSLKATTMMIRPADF
- assay.procedure: blocking ELISA, biotin-hBA2 to hTie-2
quantity.name: IC50

INSERT INTO assay_data (binder, quantity_name, value_measured) VALUES
  ('H1H690P (antibody, human IgG1, V domains shown, Human IgG1) VH: EVQLVESGGGLVQPGESLRLSCAASGFTFSSYAMSWVRQGPGKGLEWVSSITGSGDTTYYADSVKGRFTISRDNSKNTLYLHMNSLRAEDTAVYYCAKDFLDYSTYLAFDLWGQGTMVTVSS VL: EIVLTQSPATLSLSPGERATLSCRASQSVSSYLTWYQQKPGQAPRLLSYDASNRATGIPARFSGSGSGTDFTLTISSLEPEDFAVYYCQQRSNWPLTFGGGTKVEIK', 'IC50', '0.017 nM'),
  ('H1H695P (antibody, human IgG1, V domains shown, Human IgG1) VH: QVQLVESGGGVVQPGRSLRLSCAASGFTFSSYGMHWVRQAPGKGLEWVAVMWYDETNKYYADSVKGRFTISRDNSKNTLYLQMNSLRAEDTAVYYCARYSGYEDYYHGMDVWGQGTTVTVS VL: EIVMTQSPATPSVSPGERATLSCRASQSISSNLAWYQQKPGQAPRLLIYGASTRATGIPARFSGSGSGTEFTLTISSLQSEDFAVYYCQHYNNWITFGQGTRLEIK', 'IC50', '0.059 nM'),
  ('H1H706P (antibody, human IgG1, V domains shown, Human IgG1) VH: QVQLVESGGGVVQPGRSLRLSCAASGFTFSSYGMHWVRQAPDKGLEWVAVKWDDGSNKYYADSVKGRFTISRDNSKNTLYLQMNSLRAEDTAVYYCAREGPYDFYSGYGAFDIWGQGTMVTVSS VL: DIQMTQSPSSLSASVGDRVTITCRASQGISNYLAWFQQKPGKAPKSLIYAASSLQSGVPSKFSGSGSGTDFTLTISSLQPEDFATYYCQQYNSYPRTFGQGTKVEIK', 'IC50', '0.008 nM');
